B1: Gamma-crystallin C, residues 91 to 170; numbered along this chain, P07315 (parent)
chain: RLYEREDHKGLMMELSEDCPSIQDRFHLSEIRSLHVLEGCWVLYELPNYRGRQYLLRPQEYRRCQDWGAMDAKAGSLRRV

variants of: B1; assay: abundance fitness (aPCA) (normalised: wild type 0, dead -1); higher = more abundant; growth selection in yeast, the domain comes from the species named; details: Homo sapiens
Tag: 1 if measured abundance fitness is not below -0.1, 0 if it is.

Problem: Hi team, for `S29Y` , is the recorded abundance fitness at or above -0.1?
Solution: 0

Problem: Check this variant for abundance fitness at or above -0.1: `D18V`
Solution: 0

Problem: Textbook exercise: given the entry `D7E` , state whether its abundance fitness is greater than or equal to -0.1.
Solution: 1

Problem: Could you please find out whether `L34Q` has abundance fitness that meets -0.1 or exceeds it?
Solution: 0

Problem: Decide: abundance fitness of `Q23G` >= -0.1?
Solution: 0

Problem: # check: abundance fitness of `V36Q` is greater than or equal to -0.1
Solution: 0

Problem: Please check the record `G39H` and state if its abundance fitness is at or above -0.1.
Solution: 0

Problem: Decide: abundance fitness of `S16K` >= -0.1?
Solution: 0

Problem: hey, is abundance fitness for this one >= -0.1? `E45G`
Solution: 0

Problem: # bool: abundance fitness of `L55Y` >= -0.1
Solution: 1

Problem: # bool: abundance fitness of `D24S` >= -0.1
Solution: 1

Problem: Please indicate if the recorded abundance fitness for `I22S` meets or exceeds -0.1.
Solution: 0

Problem: Quick check, abundance fitness >= -0.1? `L15F`
Solution: 0

Problem: Please indicate if the recorded abundance fitness for `S33D` meets or exceeds -0.1.
Solution: 0

Problem: Determine whether measured abundance fitness meets or exceeds -0.1 for `A74M`
Solution: 0

Problem: Test whether the variant `E60P` records abundance fitness of -0.1 or higher.
Solution: 0

Problem: Hello, I need to know if `E38L` has measured abundance fitness not below -0.1. Thanks!
Solution: 0

Problem: Check this variant for abundance fitness at or above -0.1: `R50P`
Solution: 0

Problem: Is abundance fitness for `I31Q` at or above -0.1?
Solution: 0

Problem: Could you please find out whether `P58I` has abundance fitness that meets -0.1 or exceeds it?
Solution: 0

Problem: State whether the measured abundance fitness reaches -0.1, counting equality as reaching it, for `R63T`
Solution: 1

Problem: Could you tell me if the measured abundance fitness of `E30H` reaches -0.1 or more?
Solution: 1

Problem: Reported abundance fitness at or above -0.1? `D7R`
Solution: 0

Problem: Check this variant for abundance fitness at or above -0.1: `Y44F`
Solution: 1

Problem: Tell me whether abundance fitness is at least -0.1 here: `E60F`
Solution: 0

Problem: Textbook exercise: given the entry `D71T` , state whether its abundance fitness is greater than or equal to -0.1.
Solution: 1

Problem: Tell me whether abundance fitness is at least -0.1 here: `L37K`
Solution: 0

Problem: Could you verify whether the entry `R62E` shows abundance fitness of no less than -0.1?
Solution: 0

Problem: Does abundance fitness meet or surpass -0.1 for `F26C` ?
Solution: 0

Problem: Identify whether the reported abundance fitness of the following variant is -0.1 or greater: `E60C`
Solution: 0

Problem: Hi, just wondering whether `R62W` shows abundance fitness of -0.1 or higher.
Solution: 1

Problem: I'd appreciate it if you could say whether `K9D` has abundance fitness at least equal to -0.1.
Solution: 0

Problem: Can `L43A` be said to have abundance fitness at or above -0.1?
Solution: 0

Problem: Hello, I need to know if `L28R` has measured abundance fitness not below -0.1. Thanks!
Solution: 1

Problem: Decide: is the reported value of abundance fitness for `Q65K` equal to or greater than -0.1?
Solution: 1

Problem: Is it the case that `Q59H` has abundance fitness reaching or exceeding -0.1?
Solution: 0

Problem: Form field: abundance fitness at least -0.1? Entry: `D66A`
Solution: 0

Problem: Say whether `D24C` shows abundance fitness of -0.1 or more.
Solution: 0

Problem: Test whether the variant `K73C` records abundance fitness of -0.1 or higher.
Solution: 0

Problem: # bool: abundance fitness of `H27T` >= -0.1
Solution: 0

Problem: Is reported abundance fitness greater than or equal to -0.1 here: `L43Y`
Solution: 0

Problem: Given the entry `R52G` , answer whether its abundance fitness meets or surpasses -0.1.
Solution: 0

Problem: Does abundance fitness meet or surpass -0.1 for `D18C` ?
Solution: 0

Problem: Could you verify whether the entry `S29M` shows abundance fitness of no less than -0.1?
Solution: 0

Problem: Decide: abundance fitness of `Y54P` >= -0.1?
Solution: 0

Problem: Threshold query (abundance fitness >= -0.1) on `G51C`
Solution: 0
